target: HLA-B*53:01; experiment: IEDB peptide-MHC binding, purified MHC/competitive/radioactivity; filed as Kd, often an IC50 or EC50 that approximates it; bounds were set here for any values at or beyond the usual limits of such assays; conditions: source organism: Dengue virus 3 Martinique/1243/1999
measurement-name: Kd (µM)

# residue-string, experimental-target, u, number
data = [
    ("TPQPMELKY", "HLA-B*53:01", "µM", 0.0184),
    ("FPYSIPATLL", "HLA-B*53:01", "µM", 0.00997),
    ("YTALFSGVSW", "HLA-B*53:01", "µM", 0.0182),
    ("LPEDIEQMAN", "HLA-B*53:01", "µM", 2.1),
]
